# growth values compiled below
Test system: HS 578T breast
assay.overview: NCI-60 one-dose screen, 48 h (100 = growth as untreated, 0 = no growth, -100 = all killed)
run.parameters: 10 µM unless noted
Compounds without any hit were thinned out: in the full panel of roughly 83,000, 20% have a hit. Activity calls are given as the source filed them. How the source made its calls: active means growth percent below 10; inactive means the rest.
measured.attribute: growth

# compound, result
measured = [
    ("O=C(NN1C(=O)/C(=C/C=C/c2ccc([N+](=O)[O-])o2)SC1=S)c1cccc(O)c1", "-14.6% (active)"),
    ("CC(C)CSc1nc(NCCc2c[nH]c3ccccc23)c(C#N)c(-c2ccccc2)n1", "48.2% (inactive)"),
    ("Cn1cc(-c2nnc(N)nc2-c2c[nH]c3ccc(Br)cc23)c2cc(Br)cnc21", "59.2% (inactive)"),
    ("COc1cc(C2CC(c3cc(OC)c(OC)c(OC)c3)=NN2C(C)=O)ccc1OCc1ccc(F)cc1 (centres undefined)", "58.8% (inactive)"),
]

----------
# growth values compiled below
System: SK-MEL-5 melanoma
assay.overview: NCI-60 one-dose screen, 48 h (100 = growth as untreated, 0 = no growth, -100 = all killed)
run.parameters: 10 µM unless noted
About 83,000 compounds went through this panel and 20% of them were active in at least one assay; those are over-represented in the sample as a whole.

# molecule, value.unit, growth
rows = [
    ("CC12CC[C@@H]3[C@]4(C)COC(c5c(F)cccc5F)O[C@@H]4CC[C@@]3(C)[C@@H]1CC(C1=CCOC1=O)O2 (stereo partly specified)", "%", 47.4),
    ("Cn1cc(-c2nc(N)nnc2-c2c[nH]c3ccc(F)cc23)c2cccnc21", "%", 35.3),
    ("CC(/C=C1\\SC(=S)N(CCCC(=O)NC(CC(C)C)C(=O)O)C1=O)=C\\c1ccccc1 (stereo unspecified)", "%", 88.1),
    ("Nc1nc(-c2ccccc2)c(N=Nc2ccc(Cl)cc2[N+](=O)[O-])s1", "%", 98.8),
    ("Cn1cc(-c2nnc(N)nc2-c2c[nH]c3ccc(F)cc23)c2cccnc21", "%", 20.9),
    ("Clc1cccc(Cl)c1/C=C/c1cc(/C=C/c2ccc(Br)cc2)c2ccccc2n1", "%", 104),
    ("N#Cc1c(-c2cccc(Cl)c2Cl)cc(-c2c[nH]c3ccccc23)[nH]c1=O", "%", 51.6),
    ("COc1cc(OC)c2c3nc4cc(C)c(C)cc4nc3n(CCN(C)C)c2c1", "%", 69.8),
    ("O=C(C1=CNC(=S)NC1c1ccc(O)cc1)c1cc2ccccc2oc1=O (stereo unspecified)", "%", 101),
    ("CCN1C(=O)/C(=N\\N=C(/C)c2ccc3c(c2)Nc2ccccc2S3)c2cc(Cl)ccc21", "%", 7.2),
    ("CC1=C(C#N)C2=NNCC(c3ccccc3)=NN2C(c2ccccc2)=C1", "%", 106),
    ("COc1ccc(-c2nc3cc(C)ccc3n2CC(=O)N=Nc2c(O)[nH]c3ccccc23)cc1", "%", -93),
    ("CC12CC[C@@H]3[C@]4(C)COC(c5cn[nH]c5-c5ccc(Cl)cc5)O[C@@H]4CC[C@@]3(C)[C@@H]1CC(C1=CCOC1=O)O2 (stereo partly specified)", "%", 16.5),
    ("COC(=O)/C=C/c1cccc2c1C(=O)NC(C)(c1cc3cc4ccccc4cc3oc1=O)N2 (stereo unspecified)", "%", 79.5),
    ("Cc1ccc(-c2nc(C#N)c(S(=O)(=O)N3CCN(S(=O)(=O)c4ccc(Cl)cc4)CC3)o2)cc1", "%", 94.4),
    ("CCCSc1nc(Nc2ccc(S(N)(=O)=O)cc2)c(C#N)c(-c2ccc(Cl)cc2)n1", "%", 55.9),
    ("Cn1cc(NC(=O)c2cc(NC(=O)c3ccc(/C=C/c4ccccc4)cc3)cn2C)cc1C(=O)NCCCN1CCOCC1", "%", -70),
    ("CN(C)c1nc(NCCNS(=O)(=O)c2ccc(C(=O)/C=C/c3ccc(Cl)cc3)cc2)nc(Nc2ccc(F)cc2)n1", "%", -64.9),
    ("C=C1CCC2C3(C)COC(c4ccccc4)OC3CCC2(C)C1CC(NCc1ccccc1)C1=CCOC1=O (stereo unspecified)", "%", 69.9),
    ("O=C(COc1ccc(NC(=O)Nc2ccc(Cl)c(Cl)c2)cc1)N=Nc1c(O)[nH]c2ccc(Br)cc12", "%", -89),
    ("COc1c(F)ccc(C(=O)Nc2ccc3nc(NC(=O)C4CCCN(S(=O)(=O)c5ccc(C(F)(F)F)cc5)C4)sc3c2)c1F (stereo unspecified)", "%", 84.9),
    ("CCCn1cc(-c2nc(Nc3ccc(C(=O)NCCCCNc4cccc5c4C(=O)N(C4CCC(=O)NC4=O)C5=O)cc3)nc3[nH]ccc23)cn1 (stereo unspecified)", "%", 15.8),
    ("COc1cc(/C=C/C(=O)c2ccc(C)cc2)ccc1Oc1nc(Nc2ccc(F)cc2)nc(N(C)C)n1", "%", 30.5),
    ("Cn1cc(-c2nc(N)nnc2-c2c[nH]c3ccc(Br)cc23)c2cccnc21", "%", 26.3),
    ("COc1ccc(/C=C/c2n(Cc3ccc4ccccc4c3)c3ccccc3[n+]2Cc2ccc3ccccc3c2)cc1", "%", -97.6),
    ("CCOC(=O)c1ccc(Nc2nc(NN)nc(-c3ccc(OC)cc3)c2C#N)cc1", "%", 90.1),
    ("O=C1Nc2cc(Cl)ccc2/C1=C/c1cccc(OCc2ccccn2)c1", "%", 6.08),
    ("O=C(c1ccc(OCCN2CCOCC2)cc1)C1[C@H](c2ccc(Cl)cc2)[C@@H](c2ccccc2)NC12C(=O)Nc1ccc(Br)cc12 (stereo partly specified)", "%", 47.3),
    ("COCOc1cc2oc(C(=O)N[C@@H](Cc3ccccc3)C(O)C(=O)NCc3ccccc3)c(C)c(=O)c2cc1OCOC (stereo partly specified)", "%", 49.9),
    ("CC1=C(C(=O)OCc2ccccc2)C(c2c(O)cc(O)cc2O)n2c(nc3ccccc32)N1 (stereo unspecified)", "%", 53),
    ("CC(C)CCNC(=O)N/C(N)=N/c1nc2ccccc2s1", "%", 15.8),
]

----------
System: OVCAR-5 ovarian
assay.overview: NCI-60 one-dose screen, 48 h (100 = growth as untreated, 0 = no growth, -100 = all killed)
run.parameters: 10 µM unless noted
About 83,000 compounds went through this panel and 20% of them were active in at least one assay; those are over-represented in the sample as a whole.
measured.attribute: growth (%)

# compound, measured.attribute, value.unit, recorded.number
data = [
    ("Cc1ccccc1[C@H]1C(C(=O)c2ccc(Cl)cc2)C2(N[C@@H]1c1ccccc1)C(=O)Nc1ccc(Cl)cc12 (stereo partly specified)", "growth", "%", -55.8),
    ("COc1cc2c(c(OC)c1OC)C(=O)CC(c1cccc(NC(=O)c3cc(NC(=O)[C@H](CO)NC(=O)OC(C)(C)C)ccc3Cl)c1)O2 (stereo partly specified)", "growth", "%", 86.8),
    ("Cn1cc(-c2cc(N)n3nc(-c4cn(C)c5ccccc45)cc3n2)c2cc(Cl)ccc21", "growth", "%", -13.9),
    ("COc1ccc(C(=O)/C=C/c2ccc(Oc3nc(Nc4ccc(F)cc4)nc(N(C)C)n3)c(OC)c2)cc1", "growth", "%", 82.6),
    ("C=C1CC[C@@H]2[C@]3(C)COC(c4cn[nH]c4-c4ccc(Br)cc4)O[C@@H]3CC[C@@]2(C)[C@@H]1C/C=C1/C(=O)OCC1O (stereo partly specified)", "growth", "%", -75.9),
    ("O=C(/C=C/c1ccc(-c2ccccc2)cc1)c1nc2ccccc2n1Cc1ccc(Br)cc1", "growth", "%", 74.7),
]

----------
# growth values compiled below
Test system: EKVX NSCLC
assay.overview: NCI-60 one-dose screen, 48 h (100 = growth as untreated, 0 = no growth, -100 = all killed)
run.parameters: 10 µM unless noted
This is part of a sample that, as a whole, favours compounds with a hit. Of some 83,000 tested, about 20% had one in any assay.
measured.attribute: growth (%)

# compound, measured.attribute, recorded.number
rows = [
    ("COC(OC)C1=C(C)OC(N)=C(C#N)C12C(=O)Nc1ccccc12 (stereo unspecified)", "growth", 99.7),
    ("C/C(=N\\N=C1/C(=O)Nc2ccccc21)c1ccc2c(c1)Nc1ccccc1S2", "growth", 43.7),
    ("COc1ccc(C(=O)/C=C/c2cccc3ccccc23)cc1S(N)(=O)=O", "growth", -6.08),
    ("Cn1cc(-c2nnc(N)nc2-c2c[nH]c3ccc(Br)cc23)c2cc(Br)cnc21", "growth", 64.3),
    ("COc1cc(OC)cc(C(=O)Nc2cccc(-c3cn(-c4ccc(S(N)(=O)=O)cc4)nn3)c2)c1", "growth", 78.8),
    ("COc1ccc(C2CC(c3ccc(S(=O)(=O)NCCNc4nc(Nc5ccc(F)cc5)nc(N(C)C)n4)cc3)=Nc3c(N)nc(N)nc3N2)cc1 (stereo unspecified)", "growth", 87.9),
]
